B1: FOXJ1 (parent)
chain: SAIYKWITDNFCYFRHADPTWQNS

# Variants of: B1
# METHOD NOTES: protein stability index of a GFP-peptide fusion (GPS, HEK-293T) (PSI 1-6); higher = more stable;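 further: lentivirally expressed fusions sorted by FACS into six bins by GFP to DsRed ratio, PSI derived from sequencing read proportions per bin multiplied by bin number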
# CONDITION LABEL: c terminus: a fixed tail appended
MEASURED ENDPOINT: protein stability index
Answer field: number only, no words.

| VARIANT NOTATION | protein stability index |
| --- | --- |
| W21H | 2.11 |
| A17P | 3.54 |
| T8N | 3.01 |

Query: Need protein stability index, item `N10R`
Reply: 2.2

Query: Recorded protein stability index of `Y4Q` , please.
Reply: 2.97

Query: Tell me the measured protein stability index of `Y13V` , please.
Reply: 3

Query: Name the reported protein stability index value associated with the variant `I7S`
Reply: 2.81
